Source listed as PubChem BioAssay AID1963858.

# Tested on: HOP-62 multicell spheroids with HUVEC/MSC, viability
# method-notes: Anticancer human tumor HOP-62 cell line growth inhibition [KRAS2];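 also: viability read after a week of compound exposure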
# applied-conditions: second compound 0.1 µM; first compound 0.1 µM; active compounds read low
// assign condition met if viability, T/C falls strictly below 60%, else condition not met (ties count as condition not met)

>>> discrete_label("CC(C)NCC(C(=O)N1CCN(c2ncnc3c2C(C)CC3O)CC1)c1ccc(Cl)cc1 (stereo not given) + C=CC(=O)N1CCN(c2nc(OCC3CCCN3C)nc3c2CCN(c2cccc4cccc(C)c24)C3)CC1CC#N")
"condition met"
>>> discrete_label("COC(=O)c1ccc2c(C(=Nc3ccc(N(C)C(=O)CN4CCN(C)CC4)cc3)c3ccccc3)c(O)[nH]c2c1 + CNCc1ccccc1-c1csc(C(C)Nc2nc(C)nc3cc(OC)c(OC)cc23)c1")
"condition not met"
>>> discrete_label("CC(C)n1nc(-c2ccc3oc(N)nc3c2)c2c(N)ncnc21 + C=CC(=O)N1CCN(c2nc(=O)n(-c3c(C)ccnc3C(C)C)c3nc(-c4c(O)cccc4F)c(F)cc23)C(C)C1")
"condition met"
>>> discrete_label("CC1OCC2(CCN(c3cnc(Sc4ccnc(N)c4Cl)c(N)n3)CC2)C1N (stereo not given) + COc1cc2nc(C)nc(NC(C)c3cc(N)cc(C(F)(F)F)c3)c2cc1OC1CCOC1")
"condition not met"
>>> discrete_label("CCN1CCN(Cc2ccc(Nc3ncc(F)c(-c4cc(F)c5nc(C)n(C(C)C)c5c4)n3)nc2)CC1 + CC1OCC2(CCN(c3cnc(Sc4ccnc(N)c4Cl)c(N)n3)CC2)C1N")
"condition not met"
>>> discrete_label("CC(C)NCC(C(=O)N1CCN(c2ncnc3c2C(C)CC3O)CC1)c1ccc(Cl)cc1 (stereo not given) + C=CC(=O)N1CCN(c2nc(=O)n(-c3c(C)ccnc3C(C)C)c3nc(-c4c(O)cccc4F)c(F)cc23)C(C)C1")
"condition met"
>>> discrete_label("CC1OCC2(CCN(c3cnc(Sc4ccnc(N)c4Cl)c(N)n3)CC2)C1N (stereo not given) + C=CC(=O)N1CCN(c2nc(OCC3CCCN3C)nc3c2CCN(c2cccc4cccc(C)c24)C3)CC1CC#N")
"condition met"
>>> discrete_label("COc1cc(Nc2ncc3c(n2)-c2ccc(Cl)cc2C(c2c(F)cccc2OC)=NC3)ccc1C(=O)O + CNCc1ccccc1-c1csc(C(C)Nc2nc(C)nc3cc(OC)c(OC)cc23)c1")
"condition met"
>>> discrete_label("COC(=O)c1ccc2c(C(=Nc3ccc(N(C)C(=O)CN4CCN(C)CC4)cc3)c3ccccc3)c(O)[nH]c2c1 + C=CC(=O)N1CCN(c2nc(=O)n(-c3c(C)ccnc3C(C)C)c3nc(-c4c(O)cccc4F)c(F)cc23)C(C)C1")
"condition met"
>>> discrete_label("CC(C)NCC(C(=O)N1CCN(c2ncnc3c2C(C)CC3O)CC1)c1ccc(Cl)cc1 (stereo not given) + CC1OCC2(CCN(c3cnc(Sc4ccnc(N)c4Cl)c(N)n3)CC2)C1N")
"condition not met"
>>> discrete_label("CC1COCCN1c1cc(-c2ccnn2C)c2ccnc(-c3ccn[nH]3)c2n1 (stereo not given) + C=CC(=O)N1CCN(c2nc(=O)n(-c3c(C)ccnc3C(C)C)c3nc(-c4c(O)cccc4F)c(F)cc23)C(C)C1")
"condition met"
>>> discrete_label("CC(C)NCC(C(=O)N1CCN(c2ncnc3c2C(C)CC3O)CC1)c1ccc(Cl)cc1 (stereo not given) + COc1cc2nc(C)nc(NC(C)c3cc(N)cc(C(F)(F)F)c3)c2cc1OC1CCOC1")
"condition not met"
>>> discrete_label("CC1COCCN1c1cc(-c2ccnn2C)c2ccnc(-c3ccn[nH]3)c2n1 (stereo not given) + CNCc1ccccc1-c1csc(C(C)Nc2nc(C)nc3cc(OC)c(OC)cc23)c1")
"condition met"
>>> discrete_label("CN(C)C/C=C/C(=O)Nc1cc2c(Nc3ccc(F)c(Cl)c3)ncnc2cc1O[C@H]1CCOC1 + C=CC(=O)N1CCN(c2nc(=O)n(-c3c(C)ccnc3C(C)C)c3nc(-c4c(O)cccc4F)c(F)cc23)C(C)C1")
"condition not met"
